Tested on: HepG2
Experiment: cell viability relative to DMSO; higher = less toxic
Details: 72 h; 100 nM
# cell viability values compiled below
Quantity: cell viability (%)

[
  {
    "Compound": "COc1ccc(CCO[C@@H]2CCCC[C@H]2N2CC[C@@H](O)C2)cc1OC",
    "Quantity": "cell viability",
    "Recorded Value": 99.2
  },
  {
    "Compound": "CC12CCC(C(Br)C1=O)C2(C)C (configuration not stated)",
    "Quantity": "cell viability",
    "Recorded Value": 94.3
  },
  {
    "Compound": "Oc1cc(Cl)ccc1Oc1ccc(Cl)cc1Cl",
    "Quantity": "cell viability",
    "Recorded Value": 102
  },
  {
    "Compound": "O=C(CO)[C@@H](O)[C@@H](O)[C@H](O)CO",
    "Quantity": "cell viability",
    "Recorded Value": 97.6
  },
  {
    "Compound": "CN(C)CCCCC(=O)Nc1ccc(NC(=S)NC(=O)c2ccc(C(C)(C)C)cc2)cc1",
    "Quantity": "cell viability",
    "Recorded Value": 110
  },
  {
    "Compound": "C[C@H](N)C(=O)N[C@@]1(C(=O)O)C[C@@H](Sc2nnc[nH]2)[C@H]2[C@H](C(=O)O)[C@H]21",
    "Quantity": "cell viability",
    "Recorded Value": 99.6
  },
  {
    "Compound": "CN1CCC(=C2c3ccccc3Sc3ccccc32)CC1",
    "Quantity": "cell viability",
    "Recorded Value": 121
  },
  {
    "Compound": "Cc1c(O)cccc1C(=O)N[C@@H](CSc1ccccc1)[C@H](O)CN1C[C@H]2CCCC[C@H]2C[C@H]1C(=O)NC(C)(C)C",
    "Quantity": "cell viability",
    "Recorded Value": 89.5
  },
  {
    "Compound": "Cc1cc(Nc2ncc(Cl)c(Nc3ccccc3S(=O)(=O)C(C)C)n2)c(OC(C)C)cc1C1CCNCC1",
    "Quantity": "cell viability",
    "Recorded Value": 106
  },
  {
    "Compound": "CC1CCc2c(N3CCC(O)CC3)c(F)cc3c(=O)c(C(=O)O)cn1c23 (configuration not stated)",
    "Quantity": "cell viability",
    "Recorded Value": 108
  },
  {
    "Compound": "COc1ccc(Cl)cc1C(=O)NCCc1ccc(C(=O)O)cc1 [meglitinide]",
    "Quantity": "cell viability",
    "Recorded Value": 110
  },
  {
    "Compound": "COc1cc2/c(=N/c3ccc(Br)cc3F)nc[nH]c2cc1OCC1CCN(C)CC1",
    "Quantity": "cell viability",
    "Recorded Value": 110
  }
]

====

Tested on: HepG2
Test: cell viability relative to DMSO; higher = less toxic
Settings: 72 h; 1 nM
Quantity: cell viability

[
  {
    "Query Smiles": "CC(C)(COP(=O)(O)OP(=O)(O)OC[C@H]1O[C@@H](n2cnc3c(N)ncnc32)[C@H](O)[C@@H]1OP(=O)(O)O)[C@@H](O)C(=O)NCCC(=O)NCCS",
    "Assayed System": "HepG2",
    "Recorded Value": "109%"
  },
  {
    "Query Smiles": "COc1ccc(C(=O)Nc2c(Cl)cncc2Cl)cc1OC1CCCC1",
    "Assayed System": "HepG2",
    "Recorded Value": "90.4%"
  },
  {
    "Query Smiles": "CNC(=O)c1cc(Oc2ccc(NC(=O)Nc3ccc(Cl)c(C(F)(F)F)c3)cc2)ccn1",
    "Assayed System": "HepG2",
    "Recorded Value": "105%"
  },
  {
    "Query Smiles": "CCc1cnn2c(NCc3ccc[n+]([O-])c3)cc(N3CCCC[C@H]3CCO)nc12",
    "Assayed System": "HepG2",
    "Recorded Value": "99.9%"
  },
  {
    "Query Smiles": "N=C(N)S/C=C\\C(=O)O",
    "Assayed System": "HepG2",
    "Recorded Value": "96%"
  },
  {
    "Query Smiles": "CN1C(=O)N(c2cc(Cl)cc(Cl)c2)C(=O)[C@]12CN(Cc1cc(C(=O)O)cs1)C[C@H]2c1ccc(C#N)cc1",
    "Assayed System": "HepG2",
    "Recorded Value": "101%"
  },
  {
    "Query Smiles": "Cc1csc(-c2nnc(Nc3ccc(Oc4ncccc4-c4ccnc(N)n4)cc3)c3ccccc23)c1",
    "Assayed System": "HepG2",
    "Recorded Value": "101%"
  }
]
